# Tested on: Escherichia coli TOP10
# measurement notes: shrunken log2 fold change of peptide-encoding DNA abundance (4.5 h post-induction vs induction); higher = less antimicrobial activity (less host growth inhibition)
# assay conditions: time post-induction: 4.5 h; library: site-saturation at positions 5, 18, 19, 20
result type: shrunken log2 fold change
# respond with the number and nothing more

// RRIRERPPRLPRPRPRPSFPPRP : shrunken log2 fold change value = -0.704

So, RRIRGRPPRLPRPRPRPLVHPRP ? Its shrunken log2 fold change was -0.0335

Consider RRIRKRPPRLPRPRPRPTSEPRP . Its measured shrunken log2 fold change is 0.79

Looking up RRIRCRPPRLPRPRPRPMLRPRP , I see its shrunken log2 fold change listed as 0.184

The recorded shrunken log2 fold change for RRIRWRPPRLPRPRPRPQCMPRP is -0.157

Quick note, shrunken log2 fold change for RRIRKRPPRLPRPRPRPRWGPRP landed at 0.358

The sequence listed as RRIRDRPPRLPRPRPRPRPNPRP shows shrunken log2 fold change equal to 0.323

Notebook: RRIRPRPPRLPRPRPRPQGIPRP , shrunken log2 fold change read as 0.102

Field shrunken log2 fold change (entry RRIRVRPPRLPRPRPRPHKQPRP ) reads 0.0253

What the record says about RRIRRRPPRLPRPRPRPRWLPRP : shrunken log2 fold change is 0.388

Sure, the documented shrunken log2 fold change for RRIRCRPPRLPRPRPRPYEKPRP is -0.0213

Value of shrunken log2 fold change reported for the sequence RRIRRRPPRLPRPRPRPQAYPRP is 0.0231

Form field shrunken log2 fold change, entry RRIRPRPPRLPRPRPRPLEFPRP : -0.241

Entry RRIRERPPRLPRPRPRPFFVPRP — recorded shrunken log2 fold change = -0.292

Entry RRIRCRPPRLPRPRPRPGRYPRP , shrunken log2 fold change reported as 0.0533

shrunken log2 fold change in this record for RRIRCRPPRLPRPRPRPRIEPRP : -0.205

Measured shrunken log2 fold change of RRIRDRPPRLPRPRPRPQKCPRP : 0.0207

The value of shrunken log2 fold change measured for the sequence RRIRQRPPRLPRPRPRPHTLPRP turned out to be -0.263

Entry RRIRMRPPRLPRPRPRPLHMPRP ; shrunken log2 fold change = -0.0934

The measured shrunken log2 fold change associated with RRIRARPPRLPRPRPRPSKKPRP reads 0.23

Recorded result, RRIRPRPPRLPRPRPRPLVCPRP , shrunken log2 fold change: 0.272

Per the record, RRIRQRPPRLPRPRPRPQELPRP has shrunken log2 fold change of 0.157

The sequence identified as RRIRKRPPRLPRPRPRPYPLPRP registered its shrunken log2 fold change at -0.095

RRIRFRPPRLPRPRPRPTIGPRP has a reported shrunken log2 fold change of -0.0631

Record RRIRSRPPRLPRPRPRPCTDPRP , field shrunken log2 fold change: -0.11

RRIRARPPRLPRPRPRPMWAPRP has a reported shrunken log2 fold change of 0.557

Entry under test: RRIRCRPPRLPRPRPRPYYWPRP . Its shrunken log2 fold change was -0.992

Value of measured shrunken log2 fold change for the entry RRIRCRPPRLPRPRPRPRDLPRP : 0.108

Measured shrunken log2 fold change of RRIRQRPPRLPRPRPRPFVEPRP : -0.152

Value of shrunken log2 fold change reported for the sequence RRIRGRPPRLPRPRPRPTDAPRP is 1.14

The sequence listed as RRIRHRPPRLPRPRPRPNIHPRP has a reported shrunken log2 fold change of -0.364

Quick note, shrunken log2 fold change for RRIRDRPPRLPRPRPRPGRDPRP landed at 0.193

----------
Hi there, I'd appreciate the recorded shrunken log2 fold change for every entry that follows.
# Test system: Escherichia coli TOP10
# measurement notes: shrunken log2 fold change of peptide-encoding DNA abundance (4.5 h post-induction vs induction); higher = less antimicrobial activity (less host growth inhibition)
# assay conditions: time post-induction: 4.5 h; library: site-saturation at positions 5, 18, 19, 20
Lab note: write the figure by itself, no unit.

Entry RRIRCRPPRLPRPRPRPEDGPRP — recorded shrunken log2 fold change = -0.0134

Briefly, shrunken log2 fold change measured for RRIRGRPPRLPRPRPRPFGVPRP : 0.446

shrunken log2 fold change measured on RRIRNRPPRLPRPRPRPNCEPRP = -0.185

get_value(item= RRIRRRPPRLPRPRPRPPCWPRP , readout=shrunken log2 fold change) returns 0.325

Looking up RRIRHRPPRLPRPRPRPTGQPRP , I found its shrunken log2 fold change recorded as 0.0378

What the record says about RRIRWRPPRLPRPRPRPSKGPRP : shrunken log2 fold change is 0.0944

Lookup result for RRIRPRPPRLPRPRPRPGGCPRP ; measured shrunken log2 fold change: 0.295

Entry RRIRNRPPRLPRPRPRPDQYPRP , shrunken log2 fold change reported as -0.337

Per the record, RRIRPRPPRLPRPRPRPSQMPRP has shrunken log2 fold change of 0.185

Query RRIRDRPPRLPRPRPRPTYGPRP yields shrunken log2 fold change of -0.257

// shrunken log2 fold change lookup, sequence = RRIRIRPPRLPRPRPRPHEIPRP , result: -0.256

Per the record, RRIRVRPPRLPRPRPRPHVFPRP has shrunken log2 fold change of -0.0624

So for RRIRHRPPRLPRPRPRPKQMPRP , the logged shrunken log2 fold change turned out to be -0.0152

Entry RRIRDRPPRLPRPRPRPPPWPRP , shrunken log2 fold change reported as 0.788

Sure, the documented shrunken log2 fold change for RRIRWRPPRLPRPRPRPDDSPRP is -0.183

shrunken log2 fold change in this record for RRIRQRPPRLPRPRPRPNRQPRP : 0.0872

response.value for RRIRSRPPRLPRPRPRPTWLPRP (field: shrunken log2 fold change) = 0.455

RRIRWRPPRLPRPRPRPPMYPRP has a reported shrunken log2 fold change of -0.216

Documented shrunken log2 fold change of RRIRARPPRLPRPRPRPMYFPRP : -0.154

Measured shrunken log2 fold change of RRIRYRPPRLPRPRPRPHTRPRP : -0.494

get_value(item= RRIRLRPPRLPRPRPRPEWLPRP , readout=shrunken log2 fold change) returns 0.315

# shrunken log2 fold change of RRIRYRPPRLPRPRPRPDHLPRP = -0.00968

According to the records, this sequence RRIRVRPPRLPRPRPRPHDNPRP displays shrunken log2 fold change of -0.445

GET /value?item= RRIRTRPPRLPRPRPRPAHGPRP &field=shrunken log2 fold change returns 0.00693

For reference, reported shrunken log2 fold change for RRIRYRPPRLPRPRPRPAQTPRP stands at 0.0654

// field: shrunken log2 fold change; key: RRIRIRPPRLPRPRPRPFGQPRP ; value = -0.259

For record RRIRSRPPRLPRPRPRPYCPPRP the listed shrunken log2 fold change is -0.802

Item: RRIRQRPPRLPRPRPRPPGFPRP | shrunken log2 fold change: 0.0259

Sure, the documented shrunken log2 fold change for RRIRLRPPRLPRPRPRPFDNPRP is -0.0289

Sure, the documented shrunken log2 fold change for RRIRKRPPRLPRPRPRPCGIPRP is 0.0772

Sure, the documented shrunken log2 fold change for RRIRIRPPRLPRPRPRPKISPRP is -0.3

Quick note, shrunken log2 fold change for RRIRSRPPRLPRPRPRPCGSPRP landed at 0.102

----------
# Test system: Escherichia coli TOP10;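 also: peptides expressed intracellularly from a pBAD plasmid library in pooled LB shake-flask culture, induced with 0.3% L-arabinose, DNA abundance read by NGS, three biological replicates, DESeq2 with apeglm shrinkage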
# measurement notes: shrunken log2 fold change of peptide-encoding DNA abundance (4.5 h post-induction vs induction); higher = less antimicrobial activity (less host growth inhibition)
# assay conditions: time post-induction: 4.5 h; library: site-saturation at positions 5, 18, 19, 20
result type: shrunken log2 fold change
Give the figure by itself; no unit, no explanation.

Lab note: measured shrunken log2 fold change of RRIRDRPPRLPRPRPRPEYSPRP was 0.0929

shrunken log2 fold change in this record for RRIRWRPPRLPRPRPRPFIHPRP : -0.286

For reference, reported shrunken log2 fold change for RRIRFRPPRLPRPRPRPMCYPRP stands at -0.416

Documented shrunken log2 fold change of RRIRSRPPRLPRPRPRPQWAPRP : 0.0253

Form: sequence = RRIRERPPRLPRPRPRPMPKPRP ; shrunken log2 fold change = 0.153

Value of shrunken log2 fold change reported for the sequence RRIRPRPPRLPRPRPRPVLVPRP is 0.0376

// RRIRYRPPRLPRPRPRPWGTPRP : shrunken log2 fold change value = -0.0285

Form field shrunken log2 fold change, entry RRIRERPPRLPRPRPRPRLCPRP : -0.426

Sample RRIRSRPPRLPRPRPRPMHWPRP ; shrunken log2 fold change observed: -0.159

Memo: RRIRMRPPRLPRPRPRPSGGPRP , reported shrunken log2 fold change: 0.738

Value of shrunken log2 fold change reported for the sequence RRIRCRPPRLPRPRPRPFEIPRP is -0.341

The reported value for RRIRMRPPRLPRPRPRPNNWPRP in terms of shrunken log2 fold change is -0.0238

shrunken log2 fold change recorded for this sequence, RRIRRRPPRLPRPRPRPKRPPRP , is 0.656

Lab note: measured shrunken log2 fold change of RRIRCRPPRLPRPRPRPVKQPRP was -0.222

The measured shrunken log2 fold change associated with RRIRQRPPRLPRPRPRPFFSPRP reads -0.313

Cited source for all entries: the supplement of paper PMC9112550
